# System: Saccharomyces cerevisiae
# Test name: protein stability index of tFT-peptide fusion (C-terminal peptide) (PSI (0-1 scale)); higher = more stable (slower turnover)
# Run conditions: genetic background: wild type; temperature: 30 C
Assay readout: protein stability index
Answers are plain numbers.

Record excerpt, results attached:
input_sequence=QIYRMKNRYNKS assay_system="Saccharomyces cerevisiae" measurement=0.7
input_sequence=ELKGHIPFTLSR assay_system="Saccharomyces cerevisiae" measurement=0.703
input_sequence=EGGTGCLAMSVG assay_system="Saccharomyces cerevisiae" measurement=0.7
input_sequence=VPRTGSLHARLP assay_system="Saccharomyces cerevisiae" measurement=0.715
input_sequence=PVPIPCPIPPPT assay_system="Saccharomyces cerevisiae" measurement=0.703
input_sequence=LKDEERYKRRKV assay_system="Saccharomyces cerevisiae" measurement=0.709

Parameters: items (list). Returns: protein stability index for each item.
1. KTDSEPNKRIHK
2. GGGGCDVGGCVG
3. LPPCLEYLRVLR
4. GGVGLVGEVCPI
5. QSLITVETRIGS
6. IWYGLFWLRFWV
7. FLQIIIFSRVLF

[0.707, 0.675, 0.658, 0.688, 0.651, 0.51, 0.467]

* * *

Give protein stability index for every item shown.
# System: Saccharomyces cerevisiae
# Test name: protein stability index of tFT-peptide fusion (C-terminal peptide) (PSI (0-1 scale)); higher = more stable (slower turnover)
# Run conditions: genetic background: wild type; temperature: 30 C
One number for each entry.

Before answering, review these 6 worked examples.
input_sequence=VLLSSPSLLFFE measurement=0.703
input_sequence=WLGRGGACGVRW measurement=0.696
input_sequence=GRGVGACLVVVV measurement=0.523
input_sequence=PPASPSPSLLSP measurement=0.649
input_sequence=FELEQNCESATS measurement=0.706
input_sequence=EPGREKRRIVQK measurement=0.679

# return protein stability index for each item in the list
1. GGRGGEGLVREG
2. PDCQSIIRLTTG
3. PPFPPPCFPPPL

[0.667, 0.752, 0.72]

Could you tell me which protein stability index is on file for RSPNSSPPPSIS ? 0.648

* * *

# System: Saccharomyces cerevisiae
# Test name: protein stability index of tFT-peptide fusion (C-terminal peptide) (PSI (0-1 scale)); higher = more stable (slower turnover)
# Run conditions: genetic background: wild type; temperature: 30 C
Exercise: for every item that follows, state its recorded protein stability index.
Give bare numbers.

input_sequence=FSCWLFMLCVFL assay_system="Saccharomyces cerevisiae" measurement=0.316
input_sequence=CSSLIMIITCVN assay_system="Saccharomyces cerevisiae" measurement=0.115
input_sequence=YRKKIKNIWLRW assay_system="Saccharomyces cerevisiae" measurement=0.322
input_sequence=LSLWPIFGIIYC assay_system="Saccharomyces cerevisiae" measurement=0.364
input_sequence=SSGRLRFISRIH assay_system="Saccharomyces cerevisiae" measurement=0.347

Kindly review the next sequence as well.
If you can, please state the reported protein stability index value of ATAVMILCFRWC . 0.308

* * *

# Tested on: Saccharomyces cerevisiae
# Test name: protein stability index of tFT-peptide fusion (C-terminal peptide) (PSI (0-1 scale)); higher = more stable (slower turnover)
# Run conditions: genetic background: wild type; temperature: 30 C
Please enter condition met where protein stability index is greater than or equal to 0.7, and condition not met where it is lower.

input_sequence="ALDAVDDAIILD [GET1 C-terminal 12 aa]" label="condition not met"

Is the recorded value of protein stability index equal to or greater than 0.7 for this sequence? VVYYHMVCKNIT [YHR125W C-terminal 12 aa] condition not met

Textbook exercise: given the entry RSLSSRSKECSK [NOC3 C-terminal 12 aa] , state whether its protein stability index is greater than or equal to 0.7. condition not met

Has QPKKKRKKSILH [SPP41 C-terminal 12 aa] a recorded protein stability index greater than or equal to 0.7? condition not met

* * *

# Test system: Saccharomyces cerevisiae
# Test name: protein stability index of tFT-peptide fusion (C-terminal peptide) (PSI (0-1 scale)); higher = more stable (slower turnover)
# Run conditions: genetic background: wild type; temperature: 37 C
Assay readout: protein stability index

Field: example entries. Status: answers known.
input_sequence=GFESTCSLLCVF measurement=0.407
input_sequence=GIFVRIVCIDVA measurement=0.285
input_sequence=HVLGSIYWAIFV measurement=0.499
input_sequence=RGFIYCSFVVRL measurement=0.465
input_sequence=LSPPPLSFPFSA measurement=0.712

Below are some sequences; for each one, tell me its protein stability index.
1. TCGAKWIFSHIC
2. ACEFRFFYVFRC
3. CCLGVIASFIVW

[0.275, 0.287, 0.408]

* * *

# Test system: Saccharomyces cerevisiae
# Test name: protein stability index of tFT-peptide fusion in wild type (PSI (0-1 scale)); higher = more stable (slower turnover)
# Run conditions: genetic background: wild type
Assay readout: protein stability index

input_sequence=AITFPMCPLLLR measurement=0.3
input_sequence=AITLPMCPLLLRK measurement=0.43
input_sequence=RSLRVLLPPYFR measurement=0.658
input_sequence=RVTRLDACYFRI measurement=0.532

Fill in protein stability index for each of the 2 sequences listed.
1. LKILRQKMNHYN
2. PSLAAYFWRVVG

[0.223, 0.142]

* * *

# System: Saccharomyces cerevisiae
# Test name: protein stability index of tFT-peptide fusion (C-terminal peptide) (PSI (0-1 scale)); higher = more stable (slower turnover)
# Run conditions: genetic background: wild type; temperature: 30 C
Please enter Met where protein stability index is greater than or equal to 0.7, and Not met where it is lower.

Example cases with answers are listed next.
input_sequence=STCSTSQPPSPS label="Not met"
input_sequence=GRSDAPVPFDPP label="Not met"
input_sequence=SIRQDSLMVWGG label="Not met"
input_sequence=LAVVCIHAVSSF label="Not met"

Field: next sequence
Tell me whether protein stability index is at least 0.7 here: AWGSWTLCVAVH Not met

* * *

# Test system: Saccharomyces cerevisiae
# Test name: protein stability index of tFT-peptide fusion (C-terminal peptide) (PSI (0-1 scale)); higher = more stable (slower turnover)
# Run conditions: genetic background: wild type; temperature: 30 C
Please respond with reported protein stability index for every item in the list.
Answers are plain numbers.

Solved entries:
input_sequence=GLVGSGFVCIGM measurement=0.697
input_sequence=FDSGLTTHQRDA measurement=0.686
input_sequence=TRVGNMVARRGS measurement=0.687
input_sequence=CVCLGCGGAFAG measurement=0.696
input_sequence=RKAPLPDRGIPW measurement=0.708

For each entry beneath this line, provide reported protein stability index.
1. PPPPPHHRPPSS
2. MAEAVVLDPDMV
3. PPLLPYHPTRFD
4. VSRVWAHFGFCG
5. PLFPPPSLLTPH

0.709
0.683
0.713
0.707
0.719

# return protein stability index for each item in the list
1. FRSPRLSPSFFF
2. EKRKNKKYKNKM

1. 0.717
2. 0.698

* * *

# System: Saccharomyces cerevisiae
# Test name: protein stability index of tFT-peptide fusion (C-terminal peptide) (PSI (0-1 scale)); higher = more stable (slower turnover)
# Run conditions: genetic background: wild type; temperature: 37 C
Can you tell me protein stability index for the items I'm about to list?
One number for each entry.

input_sequence=FLCVLYFFLCVE measurement=0.334
input_sequence=SRFFSCCVFPSF measurement=0.737
input_sequence=RGVGSGGLEGIG measurement=0.54

For every record below, what is its protein stability index?
1. YSVERCLFVSVA
2. VFMSVAPVSVLG
3. YAFYLFSRILAA
4. AFFCTLCLFLVS

[0.443, 0.235, 0.285, 0.478]

Provide the reported protein stability index of each entry below, same order.
1. VAALFPPLRFLN
2. AWWMALAVPIVA
3. LFRGVWYYFLVR
4. CWFGLVSLFWVV
5. LVVFGLVLSLLL
6. ECCKRFCCRFVA
7. VWVVRGFLGFGG

1: 0.224; 2: 0.062; 3: 0.586; 4: 0.434; 5: 0.495; 6: 0.4; 7: 0.441

Please give protein stability index for each item listed below.
1. GPTLLVSRIAVI
2. SRKRIVALMLSG
3. FCVGVLFSCLVF
4. GPPPAPSPTPSP
5. YCFLSWVLMCCF
6. ALRLVAFFWVPG
7. PSDVLERVIRLL

1: 0.291; 2: 0.273; 3: 0.43; 4: 0.699; 5: 0.42; 6: 0.513; 7: 0.277

Respectfully, I request protein stability index for each entry included below.
1. VRSELHINSFIH
2. NHKNANAATLIN
3. IKKKKRKKIKAN
4. VYFPRLLVRVSW

1: 0.681; 2: 0.602; 3: 0.291; 4: 0.479

Would you mind listing protein stability index for each of the following sequences?
1. PRQGGDFVARVG
2. LCWLVHFFLWVS
3. AISLPVEVLAFS
4. TFVLREYVWVMS
5. LYRSLLLSFCVL
6. FFGFFWLFLLFC
7. GRRLGLLNLLSY

1. 0.721
2. 0.393
3. 0.439
4. 0.426
5. 0.521
6. 0.257
7. 0.601

For each entry beneath this line, provide reported protein stability index.
1. FSLGGVPYVFFV
2. IGYLGSELRFVS
3. FFIVGACAYVFA
4. TRKKENERRKNG
5. FFVFLVLFCLWV
6. LFLEVCFFRLYF
7. FFLLLVSVLSGW

1: 0.458; 2: 0.69; 3: 0.37; 4: 0.558; 5: 0.356; 6: 0.509; 7: 0.294

# batch: return protein stability index for each of the 5 sequences below
1. SHPAPPSPPPSP
2. PSPVPPPSSPSP
3. FLQIIIFSRVLF
4. FLYIPLYCRLSF
5. GGGSASGWRAAA

1: 0.534; 2: 0.708; 3: 0.52; 4: 0.343; 5: 0.639

For each listed entry, give its protein stability index.
1. KCWSGTVMVRLG
2. QKGLFYCVILYC
3. YNRKQEAAQKAN
4. FFFVFLGLRSVF
5. GWCLGFWCLLVC

0.452
0.272
0.606
0.434
0.068
